What follows is literature data on Ki for Histamine H4 receptor (Homo sapiens, UniProt Q9H3N8).
Binary call on Ki with cut-off 300 nM: strictly below means true (1), and equality or higher means false (0).

Strictly below 300 nM: is that where Ki of CN1CCN(C(=O)c2cc3cc(Cl)ccc3o2)CC1 sits? true (1)

Strictly below 300 nM: is that where Ki of Cc1nc(N)sc1CCCN/C(N)=N/C(=S)NC(c1ccccc1)c1ccccc1 sits? false (0)

Strictly below 300 nM: is that where Ki of CCCCN/C(=N/Cc1ccc(Cl)cc1)SCCCc1c[nH]cn1 sits? true (1)

Strictly below 300 nM: is that where Ki of CN1CCN(c2nc(NCc3ccsc3)c3cc(Cl)ccc3n2)CC1 sits? true (1)

Strictly below 300 nM: is that where Ki of Cc1nc(N)sc1CCCN/C(N)=N/C(=O)NCC(C)CC1CCCCC1 (stereo unspecified) sits? false (0)

Strictly below 300 nM: is that where Ki of COc1ccccc1N1CCN(Cc2cc(CN3CCCCC3)c3cccccc2-3)CC1 sits? false (0)

Strictly below 300 nM: is that where Ki of CNc1nc(NCC2CCN(C)C2)nc2ccc(Cl)cc12 (stereo unspecified) sits? false (0)

Strictly below 300 nM: is that where Ki of Cc1csc(CNc2nc(N3CCN(C)CC3)nc3ccc(Cl)cc23)c1 sits? true (1)

Strictly below 300 nM: is that where Ki of CN1CCN(C(=O)c2cc3ccncc3[nH]2)CC1 sits? false (0)

Strictly below 300 nM: is that where Ki of Cc1nc(N)sc1CCCN/C(N)=N/C(=O)NC[C@@H](C)c1ccccc1 sits? false (0)
